# TARGET_SYSTEM: IKKε (Homo sapiens, UniProt Q14164)
# Sequence (Q14164 whole entry, species assumed): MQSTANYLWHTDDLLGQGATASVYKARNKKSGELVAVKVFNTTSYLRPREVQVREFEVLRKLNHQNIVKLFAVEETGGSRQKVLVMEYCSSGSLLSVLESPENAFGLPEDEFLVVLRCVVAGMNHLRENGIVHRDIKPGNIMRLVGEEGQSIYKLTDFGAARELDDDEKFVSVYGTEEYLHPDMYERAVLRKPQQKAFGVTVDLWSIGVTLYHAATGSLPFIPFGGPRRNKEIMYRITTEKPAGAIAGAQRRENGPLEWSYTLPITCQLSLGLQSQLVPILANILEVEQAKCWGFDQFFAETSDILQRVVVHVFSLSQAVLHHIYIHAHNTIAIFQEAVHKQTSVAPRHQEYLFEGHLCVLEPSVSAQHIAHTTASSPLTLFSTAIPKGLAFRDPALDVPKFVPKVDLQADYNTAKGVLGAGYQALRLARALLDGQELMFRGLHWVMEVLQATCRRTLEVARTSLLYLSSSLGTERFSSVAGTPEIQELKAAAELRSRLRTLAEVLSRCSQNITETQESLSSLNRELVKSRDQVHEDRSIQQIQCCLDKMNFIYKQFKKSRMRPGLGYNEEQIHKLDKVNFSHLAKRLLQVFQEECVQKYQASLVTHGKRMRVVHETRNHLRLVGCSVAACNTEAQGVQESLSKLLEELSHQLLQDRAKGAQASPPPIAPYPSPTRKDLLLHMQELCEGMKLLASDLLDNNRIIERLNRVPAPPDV
# PROTOCOL_NOTES: IKKε biochemical assay
# CONDITIONS_USED: 10 point 1:4 dose response, 30 uM top concentration, 90 min at 25° C., LabChip EZ Reader II; read-out: IKKε_IC50
pIC50: −log10 of the molar value.
# pIC50 per entry

# count of solved cases: 3
COc1nc(Nc2nccc(-c3ccc(O[C@@H]4CCNC[C@@H]4F)c(C#N)c3)n2)ccc1C1CCN(C2COC2)CC1 ... 6.00 to 7.00
N#Cc1cc(-c2ccnc(Nc3ccc(N4CCN(C5COC5)CC4)cc3)n2)ccc1OC1CCOC1 (stereo not shown) ... > 7.00
COc1nc(Nc2nccc(-c3ccc(O[C@H]4CCN(C(=O)c5cnn[nH]5)C[C@H]4F)c(C#N)c3)n2)ccc1N1CCN(C2COC2)CC1 ... > 7.00

INPUT: Quick one: pIC50 for COc1nc(Nc2nccc(-c3cc(C#N)c(OC4CCN(C(=O)[C@H](C)O)CC4(F)F)cn3)n2)ccc1N1CCN(C2COC2)CC1 (stereo partly shown) ?
OUTPUT: 5.30 to 6.00

INPUT: Which pIC50 is reported for this compound? COc1nc(Nc2nccc(-c3ccc(OC4CCNCC4(F)F)c(C#N)c3)n2)ccc1N1CCN(C2COC2)CC1 (stereo not shown)
OUTPUT: > 7.00

INPUT: Please look up its pIC50: `COc1nc(Nc2nccc(-c3ccc(OC4CCOCC4)c(C#N)c3)n2)ccc1C(=O)N1CCC(C(=O)O)CC1`
OUTPUT: > 7.00

INPUT: Please look up its pIC50: N#Cc1cc(-c2ccnc(Nc3cccc(C4CCN(C5COC5)CC4)c3)n2)ccc1OC1CCNCC1(F)F (stereo not shown)
OUTPUT: > 7.00

INPUT: Which measured pIC50 value corresponds to `COc1nc(Nc2nccc(-c3ccc(OC4CCOCC4)c(C#N)c3)n2)ccc1C(=O)NCCO` ?
OUTPUT: > 7.00

INPUT: Suppose we examine the compound `COc1nc(Nc2nccc(-c3ccc(OC4CCOCC4)c(C#N)c3)n2)ccc1C(=O)NC[C@H](O)CO` ; what pIC50 value has been reported?
OUTPUT: > 7.00

INPUT: What value of pIC50 has been reported for the following compound? `COc1nc(Nc2nccc(-c3ccc(OC4CN(C)C4)c(C#N)c3)n2)ccc1N1CCN(C)CC1`
OUTPUT: 6.00 to 7.00
